Answer each item with its documented AC50.
measured_target: Cytochrome P450 2C9 (Homo sapiens, UniProt P11712)
Sequence (P11712 whole entry): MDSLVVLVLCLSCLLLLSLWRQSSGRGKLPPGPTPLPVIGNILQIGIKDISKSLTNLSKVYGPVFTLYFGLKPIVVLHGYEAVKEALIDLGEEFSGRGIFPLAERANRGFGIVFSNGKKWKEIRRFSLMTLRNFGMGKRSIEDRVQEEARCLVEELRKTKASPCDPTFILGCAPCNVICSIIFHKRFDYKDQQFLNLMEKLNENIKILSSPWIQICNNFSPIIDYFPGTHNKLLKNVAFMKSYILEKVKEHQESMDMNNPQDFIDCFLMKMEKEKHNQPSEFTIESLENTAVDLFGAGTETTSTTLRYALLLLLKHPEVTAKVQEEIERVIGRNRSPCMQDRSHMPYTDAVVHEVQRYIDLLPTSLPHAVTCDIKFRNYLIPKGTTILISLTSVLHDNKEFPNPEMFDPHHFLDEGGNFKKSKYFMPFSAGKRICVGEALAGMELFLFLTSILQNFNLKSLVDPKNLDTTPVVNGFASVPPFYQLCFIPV

Worked set:
> print(dat)
                                 cpd.smiles  readout                  result
1  COc1ccc2nc(C)cc(SCC(=O)NNC(=O)COc3ccccc3)c2c1     AC50    10 µM (inconclusive)
2  CC[C@H](C)N(C)C(=O)c1cc2ccccc2c(-c2ccccc2Cl)n1     AC50  31.6 µM (inconclusive)
3       O=C(/C=C\c1ccc(O)c(O)c1)OCCc1ccccc1     AC50  39.8 µM (inconclusive)

Item under review: COc1ccc(N2CCN(CCNC(=O)C3CCN(S(=O)(=O)c4cccs4)CC3)CC2)cc1 . Reported AC50? 20 µM (inconclusive)

* * *

measured_target: Corticotropin-releasing factor receptor 2/Corticotropin-releasing factor-binding protein (Homo sapiens, UniProt P24387+Q13324)
Sequence (Q13324 whole entry): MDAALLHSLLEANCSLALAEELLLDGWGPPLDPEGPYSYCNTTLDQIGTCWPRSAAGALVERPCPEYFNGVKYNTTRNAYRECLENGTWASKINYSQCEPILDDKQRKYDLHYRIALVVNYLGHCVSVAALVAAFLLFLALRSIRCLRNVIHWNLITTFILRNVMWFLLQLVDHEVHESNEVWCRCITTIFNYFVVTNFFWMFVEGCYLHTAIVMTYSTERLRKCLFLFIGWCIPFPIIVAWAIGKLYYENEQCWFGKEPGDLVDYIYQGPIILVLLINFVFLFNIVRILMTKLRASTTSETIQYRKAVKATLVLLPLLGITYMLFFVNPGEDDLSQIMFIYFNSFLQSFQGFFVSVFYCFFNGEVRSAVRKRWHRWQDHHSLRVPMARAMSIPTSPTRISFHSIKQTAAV
Sequence (P24387 whole entry): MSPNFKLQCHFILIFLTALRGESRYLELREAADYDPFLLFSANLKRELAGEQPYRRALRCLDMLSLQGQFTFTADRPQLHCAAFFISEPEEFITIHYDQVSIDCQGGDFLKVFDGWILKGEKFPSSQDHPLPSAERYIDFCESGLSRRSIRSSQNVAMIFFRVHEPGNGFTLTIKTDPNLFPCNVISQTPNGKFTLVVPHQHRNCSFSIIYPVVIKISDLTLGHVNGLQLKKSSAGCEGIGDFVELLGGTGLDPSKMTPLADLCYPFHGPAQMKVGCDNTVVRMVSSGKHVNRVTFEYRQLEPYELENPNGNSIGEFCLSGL
experiment_notes: Dose Response confirmation of uHTS hits for small molecule antagonists of the CRF-binding protein and CRF-R2 receptor complex.
Assay type: functional
condition_context: read-out: IC50_Mean
The source made the active and inactive calls.
Please answer using one outcome listed in active, inactive

> print(dat)
                                   molecule  class.name
1  COc1ccc(CC(=O)ONC(=N)c2cccc([N+](=O)[O-])c2)cc1    inactive
2  CCOC(=O)c1c(-c2cccc(Cl)c2)n[nH]c1N1C(=O)Nc2ccccc2N1O    inactive
3  CCOC(=O)Cn1c2c(c(-c3ccccc3OC)cc1=O)CCCC2    inactive
4  Cc1ccc(S(=O)(=O)Nc2cc(C(=O)Nc3cc(C)cc(C)c3)ccc2Cl)cc1    inactive

Short answer needed: outcome of this test for COc1c2c(c(OC)c3ccccc13)[C@@]1(OC2)O[C@H](CCO)C[C@H](O)[C@H]1O ? inactive

Short answer needed: outcome of this test for COc1ccc(Cl)cc1NC(=O)c1cccc([N+](=O)[O-])c1O ? active

* * *

measured_target: Corticotropin-releasing factor receptor 2/Corticotropin-releasing factor-binding protein (Homo sapiens, UniProt P24387+Q13324)
experiment_notes: activators of CRF receptor 2 with binding protein – uHTS hits, confirmation (AID 602473)
Format: functional
condition_context: read-out: EC50_Mean
Active and inactive are the calls of the source.
Please answer using one outcome listed in yes (active), no (inactive)

Observe how each entry below is paired with its result.
> print(dat)
                                 cpd.smiles  class.name
1  Cc1ccc(S(=O)(=O)Nc2cc(C(=O)Nc3cc(C)cc(C)c3)ccc2Cl)cc1          no
2  NC(=O)c1ccc2nc(-c3ccccc3)c(-c3ccccc3)nc2c1          no
3  CCOC(=O)c1c(-c2cccc(Cl)c2)n[nH]c1N1C(=O)Nc2ccccc2N1O          no
4  CCOC(=O)N1CCN(C(=O)c2cnc3ccc(S(=O)(=O)N(C)c4cccc(C)c4)cc3c2O)CC1         yes
5  N#C/C(=C(/O)COc1ccc(Cl)cc1)c1nc2ccccc2s1          no
6  O=C([C-](C1=[N+](Cc2ccc(Cl)nc2)CCN1Cc1ccc(Cl)nc1)[N+](=O)[O-])C(Cl)Cl          no

Moving on to the next compound.
Short answer needed: outcome of this test for C=CCSc1nnc(C)c(/C=C/Nc2ccc(Cl)cc2)n1 ? yes

* * *

measured_target: Short transient receptor potential channel 4 (Mus musculus, UniProt Q9QUQ5)
Sequence (Q9QUQ5 whole entry): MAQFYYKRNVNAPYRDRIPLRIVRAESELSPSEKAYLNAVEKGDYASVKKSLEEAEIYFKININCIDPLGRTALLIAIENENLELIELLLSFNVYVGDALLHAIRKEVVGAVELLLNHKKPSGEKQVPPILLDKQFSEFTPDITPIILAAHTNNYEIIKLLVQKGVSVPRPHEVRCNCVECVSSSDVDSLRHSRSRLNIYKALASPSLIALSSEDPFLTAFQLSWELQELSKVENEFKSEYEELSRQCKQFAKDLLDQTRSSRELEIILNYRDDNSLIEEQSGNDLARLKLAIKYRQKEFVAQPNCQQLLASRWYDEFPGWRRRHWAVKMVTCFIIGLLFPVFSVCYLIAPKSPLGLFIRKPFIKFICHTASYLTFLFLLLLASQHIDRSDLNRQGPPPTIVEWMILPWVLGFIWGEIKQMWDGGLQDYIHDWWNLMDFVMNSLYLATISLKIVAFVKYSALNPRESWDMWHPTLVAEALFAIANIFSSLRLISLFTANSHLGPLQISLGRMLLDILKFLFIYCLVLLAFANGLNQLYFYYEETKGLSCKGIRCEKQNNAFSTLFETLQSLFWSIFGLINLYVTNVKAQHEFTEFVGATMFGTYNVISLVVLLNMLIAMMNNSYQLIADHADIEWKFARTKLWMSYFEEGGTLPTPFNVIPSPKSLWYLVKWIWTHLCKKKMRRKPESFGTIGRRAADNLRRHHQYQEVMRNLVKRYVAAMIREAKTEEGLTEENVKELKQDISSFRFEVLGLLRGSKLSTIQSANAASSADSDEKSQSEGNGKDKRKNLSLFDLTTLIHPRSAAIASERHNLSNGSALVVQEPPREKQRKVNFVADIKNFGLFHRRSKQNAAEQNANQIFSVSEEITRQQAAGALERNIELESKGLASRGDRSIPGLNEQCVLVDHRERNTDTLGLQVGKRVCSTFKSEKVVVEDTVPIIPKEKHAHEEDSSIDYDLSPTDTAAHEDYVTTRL
experiment_notes: mouse TRPC4 channel activators, dose response, cell-based, HEK293 TRPC4/mu-opioid, Fluo-4 calcium (AID 434937)
Format: functional
The source made the active and inactive calls.
Answer each item with its documented EC50.

Worked set:
> print(dat)
                                   molecule  readout            result
1  CSCCC(NS(=O)(=O)c1ccc2c(c1)c(=O)n(C)c(=O)n2C)C(=O)NC1CCN(Cc2ccccc2)CC1 (stereo not drawn)     EC50  3.76 µM (active)
2  CCOc1ccc2ncc(C(=O)c3ccc(OC)cc3)c(N3CCN(CC)CC3)c2c1     EC50  5.96 µM (active)

Switching to the query record.
Item under review: CC(=O)OCC[N+](C)(C)C [ACETYLCHOLINE CHLORIDE] . Reported EC50? 0.421 µM (active)

* * *

Answer each item with its documented EC50.
measured_target: UniProt:Q9XUB2
Sequence (Q9XUB2 whole entry): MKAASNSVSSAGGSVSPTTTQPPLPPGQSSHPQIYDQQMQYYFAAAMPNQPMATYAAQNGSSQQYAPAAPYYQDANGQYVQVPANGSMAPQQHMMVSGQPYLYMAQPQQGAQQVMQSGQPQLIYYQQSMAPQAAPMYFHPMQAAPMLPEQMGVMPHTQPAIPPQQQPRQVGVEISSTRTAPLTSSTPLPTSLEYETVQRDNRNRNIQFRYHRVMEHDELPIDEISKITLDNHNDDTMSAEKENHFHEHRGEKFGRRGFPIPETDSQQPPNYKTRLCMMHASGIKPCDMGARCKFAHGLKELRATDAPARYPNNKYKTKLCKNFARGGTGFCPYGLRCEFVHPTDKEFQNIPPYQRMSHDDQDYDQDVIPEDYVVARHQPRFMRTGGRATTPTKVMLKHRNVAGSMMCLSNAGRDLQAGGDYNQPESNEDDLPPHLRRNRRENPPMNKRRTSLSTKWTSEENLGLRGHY
experiment_notes: MEX-5/TCR-2 RNA interaction inhibitors, dose response, biochemical, C. elegans, fluorescence polarization (AID 1960)
Calls of active or inactive are those of the source.

> print(dat)
                                   compound  readout                 result
1  CN(C)C1=NC(=O)/C(=C/c2ccc(-c3ccc(S(N)(=O)=O)cc3)o2)S1     EC50  > 300 µM (not active)

// input: 2 compounds below; output: EC50 for each
1. Cc1ccc(S(=O)(=O)/N=C2\C=C(Nc3cccc(C(=O)O)c3)C(=O)c3ccccc32)c(C)c1
2. COCCCNC(CC(=O)Nc1cc(C)cc(C)c1)C(=O)O (stereo not given)

31.7 µM (active)
> 300 µM (not active)

// input: 2 compounds below; output: EC50 for each
1. CCCCN(C)C(=O)CCC(=O)NNc1nc2ccccc2c2nc(C)nn12
2. Cc1ccc([N+](=O)[O-])cc1S(=O)(=O)Nc1ccc(O)c(Sc2nc[nH]n2)c1

1. 5.37 µM (active)
2. 9.83 µM (inconclusive)

* * *

Test system: SN12K1
experiment_notes: cells
Format: functional
condition_context: Homo sapiens
The source made the active and inactive calls.
Please answer using one outcome listed in class 1 = active, class 0 = inactive

Observe how each entry below is paired with its result.
> print(dat)
                                   compound  class.name
1  COC1C(O)C(n2ncc3c(SC)nc(SC)nc32)OC1C(O)CO (centres undefined)     class 0
2      COc1ccc2[nH]c3c(C)c4ccncc4c(C)c3c2c1     class 1
3             c1ccc2c(c1)NCc1cc3ccccc3nc1O2     class 0

Moving on to the next compound.
Short answer needed: outcome of this test for COc1cc2c(oc(=O)c3cc(C)cc(OC)c32)c2c(C3OC(C)C(O)C(C)(O)C3O)ccc(O)c12 (centres undefined) ? class 1

* * *

Answer each item with its documented EC50.
Tested on: Streptococcus sp. 'group A'
experiment_notes: growth inhibition of control SK(-) GAS strain, dose response, counter-screen for streptokinase expression inhibitor project, luminescence, kanamycin, BacTiterGlo, confirmation (AID 1900)
Format: functional, organism-based
Active and inactive are the calls of the source.

Worked set:
> print(dat)
                                   molecule  readout            result
1              CCCCCCCCCCCCCCCC[N+](C)(C)CC     EC50   1.3 µM (active)
2   COc1cc2nc(S)n3nc(COc4ccccc4C)nc3c2cc1OC     EC50  4.21 µM (active)
3  Cc1nn(-c2ccccc2)c(C)c1/C=N/NC(=O)c1cc(-c2ccc(Cl)s2)[nH]n1     EC50  10.8 µM (active)
4  Cc1cc2c(=O)n(Cc3ccco3)c(SCC(=O)N3CCCc4ccccc43)nc2s1     EC50  20.4 µM (active)

// input: 6 molecules below; output: EC50 for each
1. N#C/C(=C(/O)c1ccc([N+](=O)[O-])o1)c1nc2ccccc2[nH]1
2. O=C(NNc1ccccc1Cl)C(O)(c1cccc(C(F)(F)F)c1)c1cccc(C(F)(F)F)c1
3. O=C(Nc1ccc(Oc2ccc(Cl)cc2)c(Cl)c1)c1cc(I)cc(I)c1O [RAFOXANIDE]
4. CC(C)n1c(=O)c2c(=O)cc(O)oc2c2ccccc21
5. CCOC(=O)c1c(NC(=O)COC(=O)c2ccc(C)s2)sc2c1CC(C)(C)NC2(C)C
6. CCC1CCCCN1c1cc(C)nc2cc(-c3cccc(C)c3)nn12 (stereo not given)

1: 3.57 µM (active); 2: 2.65 µM (active); 3: 0.08 µM (active); 4: 27.8 µM (active); 5: 2.43 µM (active); 6: 6.17 µM (active)

* * *

measured_target: Genome polyprotein (dengue virus type 2, UniProt P29990)
experiment_notes: Dengue-2 NS5 methyltransferase inhibitors, primary screen, biochemical, confirmation dose response (AID 588689)
Assay type: functional
Activity calls are given as the source filed them.
readout: IC50

Worked set:
> print(dat)
                                 cpd.smiles  readout            result
1                  Nc1ccc(N2CCCCC2)c2nonc12     IC50  40.6 µM (active)
2  COc1cc(/C=C2\C(=O)N(c3ccc(S(N)(=O)=O)cc3)N=C2C)ccc1OC(=O)c1ccco1     IC50  73.2 µM (active)

Switching to the query record.
Item under review: Cc1coc2c1C(=O)C(=O)c1c-2ccc2c1CCCC2(C)C . Reported IC50? > 100 µM (active)
